# MEASUREMENT_TARGET: T1, mouse VEGF (mouse, UniProt Q00731-2 27-190)
# T1 construct: Bought recombinant protein; also called mVEGF-A; mouse VEGF-A
# T1 sequence (looked up): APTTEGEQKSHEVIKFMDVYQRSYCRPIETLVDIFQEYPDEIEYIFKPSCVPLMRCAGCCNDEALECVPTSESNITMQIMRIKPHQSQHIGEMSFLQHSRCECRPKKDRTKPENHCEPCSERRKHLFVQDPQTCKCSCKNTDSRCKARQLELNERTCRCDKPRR
# METHOD_SUMMARY: ELISA and BIAcore
MEASURED_ENDPOINT: fold affinity over mother clone F

HF2-7 (antibody, V domains shown) VH: EVQLVESGGGLVQPGGSLRLSCAASQFWIRSHGMQWVRQAPGKGLEYVAGISSDGSWFRVAAAVEGRFTISRDDSKNTAYLQMNSLRAEDTAVYYCARDFSTGYGADSIDAWGQGTLVTVSS VL: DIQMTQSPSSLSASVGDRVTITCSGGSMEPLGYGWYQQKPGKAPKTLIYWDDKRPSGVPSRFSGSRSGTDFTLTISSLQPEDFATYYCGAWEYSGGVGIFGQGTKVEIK | ≥ 10 times

fold affinity over mother clone F reading for HF2-25 (antibody, V domains shown) VH: EVQLVESGGGLVQPGGSLRLSCAASYMEYRSHGMQWVRQAPGKGLEYVAGISSDGSWFRMNAAVEGRFTISRDDSKNTAYLQMNSLRAEDTAVYYCARDFSTGYGADSIDAWGQGTLVTVSS VL: DIQMTQSPSSLSASVGDRVTITCSGGSNFPMGYGWYQQKPGKAPKTLIYWDDKRPSGVPSRFSGSRSGTDFTLTISSLQPEDFATYYCGAWEYSGGVGIFGQGTKVEIK : ≥ 10 times

Source: patent US20160122426A1
